Tested System: GST-JAK2(808-1132) (Homo sapiens)
Construct: GST-JAK2(808-1132); purchased Invitrogen (Carlsbad, USA) #4288
Sequence (O60674 808-1132): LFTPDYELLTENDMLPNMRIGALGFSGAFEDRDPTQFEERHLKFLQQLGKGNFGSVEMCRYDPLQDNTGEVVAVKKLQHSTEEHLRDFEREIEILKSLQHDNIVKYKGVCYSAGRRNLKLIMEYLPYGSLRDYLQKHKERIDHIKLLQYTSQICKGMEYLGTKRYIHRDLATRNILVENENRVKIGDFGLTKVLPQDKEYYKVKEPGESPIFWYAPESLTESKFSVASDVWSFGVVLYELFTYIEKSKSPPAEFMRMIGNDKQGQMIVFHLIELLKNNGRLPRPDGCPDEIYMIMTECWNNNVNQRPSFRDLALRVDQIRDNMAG
Measurement Protocol: EPK JAK-family kinases profiling assay (Caliper mobility shift), JAK2
Format: biochemical
Run Parameters: ATP 20 μM, 1.8 nM kinase
Procedure: All four kinases of the JAK-family kinases were used as purified recombinant GST-fusion proteins, containing the active kinase domains. GST-JAK1(866-1154), GST-JAK3(811-1124), and GST-TYK2(888-1187) were expressed and purified by affinity chromatography at the EPK biology unit. […] The terminated reactions were transferred to the Caliper LabChip 3000 reader and the turnover of each reaction was measured by determining the substrate/product ratio. […]
Observation Type: IC50 (nM)

{"Compound Structure": "CC(C)(O)C#Cc1cnc2cccc(-c3cc(F)c(CN4CCS(=O)(=O)CC4)c(F)c3)c2n1", "Observation Type": "IC50", "Uom": "nM", "Relation Sign": "=", "Val": 70}
{"Compound Structure": "O=S1(=O)CCN(Cc2ccc(-c3cccc4ncc(-c5cnn(C6CCNCC6)c5)nc34)cc2)CC1", "Observation Type": "IC50", "Uom": "nM", "Relation Sign": "=", "Val": 3.4}
{"Compound Structure": "Cc1cc(-c2cnc3cccc(-c4ccc(CN5CCS(=O)(=O)CC5)cc4)c3n2)ccc1C(=O)N1CCOCC1", "Observation Type": "IC50", "Uom": "nM", "Relation Sign": "=", "Val": 77.5}
{"Compound Structure": "COCCn1cc(-c2cnc3cccc(-c4cc(F)c(CN5CCOCC5)c(F)c4)c3n2)cn1", "Observation Type": "IC50", "Uom": "nM", "Relation Sign": "=", "Val": 9.3}
{"Compound Structure": "COc1cc(-c2cnc3cccc(-c4ccc(S(=O)(=O)N(C)C)cc4)c3n2)cc(OC)c1OC", "Observation Type": "IC50", "Uom": "nM", "Relation Sign": "=", "Val": 110}
{"Compound Structure": "Cc1cc(-c2cnc3cccc(-c4ccc(CN5CCS(=O)(=O)CC5)c(F)c4)c3n2)ccc1C(=O)N(C)C", "Observation Type": "IC50", "Uom": "nM", "Relation Sign": "<", "Val": 3}
{"Compound Structure": "CCOc1ccc(-c2cnc3cccc(-c4ccc(C(=O)N5CCS(=O)(=O)CC5)c(F)c4)c3n2)cc1OCC", "Observation Type": "IC50", "Uom": "nM", "Relation Sign": "=", "Val": 7.3}
